# Tested on: Bacillus subtilis
# ASSAY: cleaved RNA product abundance (RNA/gDNA barcode ratio) relative to median wild-type variant (ratio to wild type); higher = more accumulation of the downstream cleavage product
# SETUP CONDITIONS: experiment (reporter, strain, medium): exp 4a: truncated aprE reporter, strain BJT201 with 2% xylose (RNase J1 expressed); cleavage site: cggR-gapA (positions -7 to +36 mutated)
RECORDED METRIC: cleaved RNA product abundance

RECORD SEQUENCE	ENDPOINT RESULT
ACAGACGAAGGAGCCGCAACGAAGTTATTAAGGGATGAATAATCCCTCAACATAAATATCTCTCACTTATTTAAA	0.447
ACAGACGAAGGAGCCGCAAAAAAGTTATTAAGGGATGAATAAGCCCTCAATATAAATATCTCTCACTTATTTAAA	0.793
ACAGACGAAGGAGCCGCAAAGAAGTTATAAAGGGATGAATAATCCCTAAATATAAATATCTCTCACTTATTTAAA	0.626

###

# Test system: Bacillus subtilis
# ASSAY: cleaved RNA product abundance (RNA/gDNA barcode ratio) relative to median wild-type variant (ratio to wild type); higher = more accumulation of the downstream cleavage product
# SETUP CONDITIONS: experiment (reporter, strain, medium): exp 2b: truncated aprE reporter, strain BJT200; cleavage site: cggR-gapA (positions -7 to +36 mutated)
Threshold check on cleaved RNA product abundance: at or above 0.1 gives T, strictly below gives F.

RECORD SEQUENCE	LABEL VALUE
ACAGACGAAGGAGCCGCAAAGAAATTATTAAGGTATGAATAATCCCTCAATATAAATATCTCTCACTTATTTAAA	T
ACAGACGAAGGAGCCGCAAAGAAGTTATTAATGGATTAATAATCCCTCAATATAAATATCTCTCACTTATTTAAA	T
ACAGACGAAGGAGCCGCAAAGAAGTTATTAAGGGATTAAAAATCCCTCAATATAAATATCTCTCACTTATTTAAA	T
ACAGACGAAGGAGCCGCAAAGAAGTTATTAAGGGATCAATAATCCCTCAATATAAATACCTCTCACTTATTTAAA	T
ACAGACGAAGGAGCCGCAAAGAAGTTATTAAGCGCTGAATAATCCCTCAATATAAATATCTCTCACTTATTTAAA	F
ACAGACGAAGGAGCCGCAAAGAAGTTATTAAAGGAAGAATAATCCCTCAATATAAATATCTCTCACTTATTTAAA	F
ACAGACGAAGGAGCCGCAAAGAAGTTAATAAGGGATCAATAATCCCTCAATATAAATATCTCTCACTTATTTAAA	T
ACAGACGAAGGAGCCGCAAAGAAGTTATTAAGGGATGAAAAATCCCTCAATATAGATATCTCTCACTTATTTAAA	T

###

# System: Bacillus subtilis
# ASSAY: cleaved RNA product abundance (RNA/gDNA barcode ratio) relative to median wild-type variant (ratio to wild type); higher = more accumulation of the downstream cleavage product
# SETUP CONDITIONS: experiment (reporter, strain, medium): exp 4a: truncated aprE reporter, strain BJT201 with 2% xylose (RNase J1 expressed); cleavage site: cggR-gapA (positions -7 to +36 mutated)
Listed below: cleaved RNA product abundance values for each entry.
RECORDED METRIC: cleaved RNA product abundance

RECORD SEQUENCE	TARGET	RECORDED METRIC	ENDPOINT RESULT
ACAGACGAAGGAGCCGCAAAGAACTTATTAAGGGATGAATAATCCCTCAAGATAAATATCTCTCACTTATTTAAA	Bacillus subtilis	cleaved RNA product abundance	0.185
ACAGACGAAGGAGCCGCGAATAAGTTATTAAGGGATGAATAATCCCTCAATATAAATATCTCTCACTTATTTAAA	Bacillus subtilis	cleaved RNA product abundance	1.47
ACAGACGAAGGAGCCGCAAAGAAGTTATTAAGGTATGAATAATCCCTCAATATAACTATCTCTCACTTATTTAAA	Bacillus subtilis	cleaved RNA product abundance	0.102
ACAGACGAAGGAGCCGCAAAGAAGTTATTAGGGGATGGATAATCCCTCAATATAAATATCTCTCACTTATTTAAA	Bacillus subtilis	cleaved RNA product abundance	0.709

###

# Tested on: Bacillus subtilis
# ASSAY: cleaved RNA product abundance (RNA/gDNA barcode ratio) relative to median wild-type variant (ratio to wild type); higher = more accumulation of the downstream cleavage product
# SETUP CONDITIONS: experiment (reporter, strain, medium): exp 4a: truncated aprE reporter, strain BJT201 with 2% xylose (RNase J1 expressed); cleavage site: cggR-gapA (positions -7 to +36 mutated)
RECORDED METRIC: cleaved RNA product abundance

RECORD SEQUENCE	RECORDED METRIC	ENDPOINT RESULT
ACAGACGAAGGAGCCGCAAAGAATTTATTATGGGATGAATAATCCCTCAATATAAATATCTCTCACTTATTTAAA	cleaved RNA product abundance	0.292
ACAGACGAAGGAGCCGCAAAGTAGTTATTAAGGGATGAATAATCCCTAAATATAAATATCTCTCACTTATTTAAA	cleaved RNA product abundance	0.55
ACAGACGAAGGAGCCGCCAAGAAGTTATTAAAGGATGAATAATCCCTCAATATAAATATCTCTCACTTATTTAAA	cleaved RNA product abundance	0.144

###

# Test system: Bacillus subtilis
# ASSAY: cleaved RNA product abundance (RNA/gDNA barcode ratio) relative to median wild-type variant (ratio to wild type); higher = more accumulation of the downstream cleavage product
# SETUP CONDITIONS: experiment (reporter, strain, medium): exp 8a: truncated aprE reporter, strain BJT201 with 2% xylose (RNase J1 expressed); cleavage site: glnRA (positions -5 to +31 mutated)
Listed below: cleaved RNA product abundance values for each entry.

RECORD SEQUENCE	TARGET	cleaved RNA product abundance
CGACATGTCCCGCTTCTTTCATTAATCCGTTAGCAACGGTTTTACTATATACATTTACCTTTTAAGAGGAGGAAT	Bacillus subtilis	0.495
CGACATGTCCCGCTTCTTTCATTATTCCGTTAGCAACTGTTTTGCTTTATACATTTACCTTTTAAGAGGAGGAAT	Bacillus subtilis	0.401
CGACATGTCCCGCTTCTTTCATTAATCCGTTAGCATCTGTTTTGCTATATACATTTACCTTTTAAGAGGAGGAAT	Bacillus subtilis	0.769
CGACATGTCCCGCTTCTTTCATTAATCCGTTAGCAACTGTTTTGATATATACATTTATCTTTTAAGAGGAGGAAT	Bacillus subtilis	0.509
CGACATGTCCCGCTTCTTTCATTAATCCGTTAGCAATTGTTTTGCTATATACTTTTACCTTTTAAGAGGAGGAAT	Bacillus subtilis	0.272
CGACATGTCCCGCTTCTTTCATTATTCCGTTTGCAACTGTTTTGCTATATACATTTACCTTTTAAGAGGAGGAAT	Bacillus subtilis	0.543
CGACATGTCCCGCTTCTTTCATTAATCCGTTAGCAACTGTTTTGCAATATACCTTTACCTTTTAAGAGGAGGAAT	Bacillus subtilis	0.29
CGACATGTCCCGCTTCTTTCATTAATCCCTTAGCAACTCTTTTGCTATATACATTTACCTTTTAAGAGGAGGAAT	Bacillus subtilis	0.0915
CGACATGTCCCGCTTCTTTCATTAATCCGTTAGCAACTGTTTAGCTATATACATTTACTTTTTAAGAGGAGGAAT	Bacillus subtilis	0.591
CGACATGTCCCGCTTCTTTCATTAATCCGTTAGCAACTGTTATGCTATATACATTTAGCTTTTAAGAGGAGGAAT	Bacillus subtilis	0.711
CGACATGTCCCGCTTCTTTCATTAATTCGTTAGCAACTGTTTTGCTATATACATGTACCTTTTAAGAGGAGGAAT	Bacillus subtilis	0.933
CGACATGTCCCGCTTCTTTCATTAATGCTTTAGCAACTGTTTTGCTATATACATTTACCTTTTAAGAGGAGGAAT	Bacillus subtilis	0.618
CGACATGTCCCGCTTCTTTCATTAATCCGTAAGCAATTGTTTTGCTATATACATTTACCTTTTAAGAGGAGGAAT	Bacillus subtilis	0.524
CGACATGTCCCGCTTCTTTCATTAATCCGTTAGCAACTGTTTTTCTGTATACATTTACCTTTTAAGAGGAGGAAT	Bacillus subtilis	0.357
CGACATGTCCCGCTTCTTTCATTAAAACGTTAGCAACTGTTTTGCTATATACATTTACCTTTTAAGAGGAGGAAT	Bacillus subtilis	0.868

###

Listed below: cleaved RNA product abundance values for each entry.
# System: Bacillus subtilis
# ASSAY: cleaved RNA product abundance (RNA/gDNA barcode ratio) relative to median wild-type variant (ratio to wild type); higher = more accumulation of the downstream cleavage product
# SETUP CONDITIONS: experiment (reporter, strain, medium): exp 4a: truncated aprE reporter, strain BJT201 with 2% xylose (RNase J1 expressed); cleavage site: cggR-gapA (positions -7 to +36 mutated)

RECORD SEQUENCE	TARGET	cleaved RNA product abundance
ACAGACGAAGGAGCCGCAGAGAAGTTATTAAGGGATGAATAATCCCACAATATAAATATCTCTCACTTATTTAAA	Bacillus subtilis	0.235
ACAGACGAAGGAGCCGCAAAGAAGTTATTCAGGGATGAATAATCCATCAATATAAATATCTCTCACTTATTTAAA	Bacillus subtilis	0.319
ACAGACGAAGGAGCCGCAAAGAAGTTATTAAGGGATGAATAATCCCTCTGTATAAATATCTCTCACTTATTTAAA	Bacillus subtilis	0.224
ACAGACGAAGGAGCCGCAAAGAAGTTATTAAGGGATGAATCATCCCTCAATATAAATAACTCTCACTTATTTAAA	Bacillus subtilis	0.573
ACAGACGAAGGAGCCGCAAAGAAGTTATTAAGGGATAAATAATCGCTCAATATAAATATCTCTCACTTATTTAAA	Bacillus subtilis	0.0974
ACAGACGAAGGAGCCGCAAAGAAGTTATTAAGAGATGAATAATCCCTCAATATAAAGATCTCTCACTTATTTAAA	Bacillus subtilis	0.186
ACAGACGAAGGAGCCGCAAAGAAGGTATTAAGGGATGAATAATCCCTCAATATAAATTTCTCTCACTTATTTAAA	Bacillus subtilis	0.849
ACAGACGAAGGAGCCGCAAAGAAGTTATTAATGGATGAATAATCCCTCAGTATAAATATCTCTCACTTATTTAAA	Bacillus subtilis	0.0629
ACAGACGAAGGAGCCGCAAAGAAGTTATTAAGGGATAAATAATCCCTCAATATATATATCTCTCACTTATTTAAA	Bacillus subtilis	0.916

Ref: the supplement of paper PMC11780869
